Origin of the recorded values: patent KR20130140557A

Target under test: T1, IL-6R-Fc 항원 (IL-6R full domain 단백질) (human, UniProt P08887 20-365)
T1 construct: domain: IL-6R full domain; Expressed transiently in HEK293E and purified from the supernatant; also called IL-6R 항원; not shown: Fc part from expression vector pYK 604
T1 sequence (looked up): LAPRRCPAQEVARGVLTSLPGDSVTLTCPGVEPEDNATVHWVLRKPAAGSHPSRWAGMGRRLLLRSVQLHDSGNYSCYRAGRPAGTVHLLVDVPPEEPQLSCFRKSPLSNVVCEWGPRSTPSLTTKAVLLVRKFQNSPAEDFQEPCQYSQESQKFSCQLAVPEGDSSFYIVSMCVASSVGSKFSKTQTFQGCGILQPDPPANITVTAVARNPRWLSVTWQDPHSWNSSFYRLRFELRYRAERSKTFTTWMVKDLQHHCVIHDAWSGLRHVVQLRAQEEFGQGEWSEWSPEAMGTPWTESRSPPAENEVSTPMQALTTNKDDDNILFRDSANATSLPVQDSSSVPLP
Test method notes: ELISA, coated IL-6R 100 ng/well, anti-Fab-HRP
Property name: OD 490 nm at 25 nM antibody (OD490)

{"columns": ["Binder", "Readout units", "Result number"],
 "data": [
  ["항 IL-6R 단클론 항체 D2 (IgG) (antibody, V domains shown, Phage clone converted to whole IgG) VH: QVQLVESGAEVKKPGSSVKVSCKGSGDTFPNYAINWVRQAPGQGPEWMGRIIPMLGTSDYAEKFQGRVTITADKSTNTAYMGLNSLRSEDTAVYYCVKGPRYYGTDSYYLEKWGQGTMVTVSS VL: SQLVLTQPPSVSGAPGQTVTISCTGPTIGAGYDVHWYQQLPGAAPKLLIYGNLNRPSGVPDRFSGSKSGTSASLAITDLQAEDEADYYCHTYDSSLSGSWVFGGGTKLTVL", "OD490", 1.94],
  ["항 IL-6R 단클론 항체 B10 (IgG) (antibody, V domains shown, Phage clone converted to whole IgG) VH: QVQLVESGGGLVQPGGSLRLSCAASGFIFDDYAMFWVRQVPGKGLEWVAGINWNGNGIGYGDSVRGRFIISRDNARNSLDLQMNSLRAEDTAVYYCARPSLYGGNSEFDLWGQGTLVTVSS VL: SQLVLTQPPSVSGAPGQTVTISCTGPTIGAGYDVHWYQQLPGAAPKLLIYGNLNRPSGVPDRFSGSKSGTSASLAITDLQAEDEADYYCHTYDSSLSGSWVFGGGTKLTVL", "OD490", 1.78],
  ["항 IL-6R 단클론 항체 A7 (IgG) (antibody, V domains shown, Phage clone converted to whole IgG) VH: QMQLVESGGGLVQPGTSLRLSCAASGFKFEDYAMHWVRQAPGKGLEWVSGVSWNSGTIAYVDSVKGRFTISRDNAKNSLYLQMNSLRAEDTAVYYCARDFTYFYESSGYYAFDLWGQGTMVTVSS VL: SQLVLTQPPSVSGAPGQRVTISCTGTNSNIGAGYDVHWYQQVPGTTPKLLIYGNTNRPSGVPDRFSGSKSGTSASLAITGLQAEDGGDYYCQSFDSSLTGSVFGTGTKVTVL", "OD490", 2.84],
  ["항 IL-6R 단클론 항체 F2 (IgG) (antibody, V domains shown, Phage clone converted to whole IgG) VH: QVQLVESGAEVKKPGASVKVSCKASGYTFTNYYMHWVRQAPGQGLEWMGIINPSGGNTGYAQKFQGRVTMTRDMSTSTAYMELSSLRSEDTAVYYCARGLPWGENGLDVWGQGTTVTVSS VL: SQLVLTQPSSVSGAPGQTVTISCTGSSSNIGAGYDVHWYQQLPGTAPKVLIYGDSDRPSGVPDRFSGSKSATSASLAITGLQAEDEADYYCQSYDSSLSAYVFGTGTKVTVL", "OD490", 2.89]
]}
